Test system: Lactobacillus gasseri
ASSAY DETAILS: growth AUC relative to DMSO control (median of replicates) (fraction); higher = more growth (less inhibition), active = hit call of the paper
ASSAY CONTEXT: 20 µM; 24 h
# if value of growth AUC reaches 1, tag Satisfied; if it stays below, tag Not satisfied

{"COMPOUND": "CCCCOCCOCCOCc1cc2c(cc1CCC)OCO2", "GROUP LABEL": "Satisfied"}
{"COMPOUND": "CCOC(=O)/C(Cl)=C/c1cc(N2C(=O)C3=C(CCCC3)C2=O)ccc1Cl", "GROUP LABEL": "Satisfied"}
{"COMPOUND": "Cc1c(Br)c2ccc(F)cc2n1S(=O)(=O)c1ncn(S(=O)(=O)N(C)C)n1", "GROUP LABEL": "Satisfied"}
{"COMPOUND": "CCCCOC(=O)COc1ccc(Cl)cc1Cl", "GROUP LABEL": "Satisfied"}
{"COMPOUND": "N#Cc1ccc(CC(=NNC(=O)Nc2ccc(OC(F)(F)F)cc2)c2cccc(C(F)(F)F)c2)cc1 (mixture of isomers)", "GROUP LABEL": "Satisfied"}
{"COMPOUND": "C#CCN(C)c1c(C#N)cnn1-c1nn2c(c1Cl)CCCC2", "GROUP LABEL": "Satisfied"}
{"COMPOUND": "Cc1nc(C(F)(F)F)c(C(=O)Nc2c(Br)cc(OC(F)(F)F)cc2Br)s1", "GROUP LABEL": "Satisfied"}
{"COMPOUND": "CC(=O)Nc1cc(NS(=O)(=O)C(F)(F)F)c(C)cc1C", "GROUP LABEL": "Satisfied"}
{"COMPOUND": "CC(C)OC(=O)[C@@H](C)N(C(=O)c1ccccc1)c1ccc(F)c(Cl)c1", "GROUP LABEL": "Not satisfied"}
{"COMPOUND": "CCCCCCCC/C=C\\CCCCCCCCCCCCC", "GROUP LABEL": "Satisfied"}
{"COMPOUND": "CC(C)c1nn(C(=O)NC(C)(C)C)c(=O)n1N", "GROUP LABEL": "Satisfied"}
{"COMPOUND": "CN(C)C(=O)Nc1ccc(Oc2ccc(Cl)cc2)cc1", "GROUP LABEL": "Not satisfied"}
{"COMPOUND": "CNC(=O)Nc1nc2ccccc2s1", "GROUP LABEL": "Not satisfied"}
{"COMPOUND": "CCCCC(CC)CN1C(=O)C2C(C1=O)[C@H]1C=C[C@@H]2C1 (mixture of isomers)", "GROUP LABEL": "Satisfied"}
{"COMPOUND": "CN(C)C(=O)NC1CCCCCCC1", "GROUP LABEL": "Satisfied"}
{"COMPOUND": "CCC([O-])=C1C(=O)CC(C(=O)[O-])CC1=O.[Ca+2] (stereo not given)", "GROUP LABEL": "Satisfied"}
{"COMPOUND": "O=C(Nc1ccc(F)cc1-c1ccc(Cl)c(Cl)c1)c1cn[nH]c1C(F)F", "GROUP LABEL": "Not satisfied"}
{"COMPOUND": "CSC(=O)c1cccc2nnsc12", "GROUP LABEL": "Not satisfied"}

----------
Measured growth AUC, listed per entry for reference.
Test system: Bacteroides thetaiotaomicron
ASSAY DETAILS: growth AUC relative to DMSO control (median of replicates) (fraction); higher = more growth (less inhibition), active = hit call of the paper
ASSAY CONTEXT: 20 µM; 24 h

{"COMPOUND": "CSc1nnc(C(C)(C)C)c(=O)n1/N=C/C(C)C", "growth AUC": 1.02}
{"COMPOUND": "S=C([S-])NCCNC(=S)[S-].S=C([S-])NCCNC(=S)[S-].[Mn+2].[Zn+2]", "growth AUC": 0.975}
{"COMPOUND": "COc1c(Cl)ccc(Cl)c1C(=O)O", "growth AUC": 1}
{"COMPOUND": "CCc1ccc(O)cc1", "growth AUC": 0.989}
{"COMPOUND": "COc1cc(OC)nc(NC(=O)NS(=O)(=O)Nc2ccccc2C(=O)N(C)C)n1", "growth AUC": 0.986}
{"COMPOUND": "O=C(O)CCCc1c[nH]c2ccccc12", "growth AUC": 0.971}
{"COMPOUND": "CCc1cccc(C)c1NC(=O)CS(=O)(=O)[O-].[Na+]", "growth AUC": 1.01}
{"COMPOUND": "Cc1cc(N(C)C)nc(Cl)n1", "growth AUC": 1.02}
{"COMPOUND": "CCOC(=O)C(C)Oc1ccc(Oc2cnc3cc(Cl)ccc3n2)cc1 (centres undefined)", "growth AUC": 0.992}
